read-out: growth arrest and DNA damage 45 (GADD45B), GADD45B (gene 4616); experiment: LTEA_HepaRG_GADD45B: Life Technologies and Expression Analysis (LTEA) Assay for growth arrest and DNA damage 45 (GADD45B) using HepaRG (AID 2283461); conditions: mRNA level, 48 h; actives raise or lower the signal
Calls of active or inactive are those of the source. Rule for the calls: active = hit-call score of the fitted dose curve at least 0.9, where 1 is the maximum; inactive = score below 0.9.
Just give me one of these, please: 1 for active, -1 for inactive

// known answers, use as guide
INSERT INTO measurements (compound, category_label) VALUES
  ('CCCCN(CCCC)N=O', -1),
  ('c1ccc2c(c1)Nc1ccccc1S2', 1),
  ('CCOP(=S)(Oc1ccc([N+](=O)[O-])cc1)c1ccccc1 (centres undefined)', -1),
  ('Nc1cc2c3c(c1)C(c1ccccc1)=N[C@@H](NC(=O)c1cccnc1)C(=O)N3CC2', -1),
  ('CCC(C)(C)c1ccc(O)cc1', -1),
  ('Cc1ccc([N+](=O)[O-])cc1C', -1);

// return assay outcome for c1cc2c3c(cccc3c1)CC2
-1

// return assay outcome for CN(C)C(=O)Cl
-1

// return assay outcome for O=C(O)C(Cl)Cl
-1

----------
Molecular target: bovine Estrogen Receptor (ER), ESR1 (gene 407238)
Assay: NVS_NR_bER: NovaScreen (NVS) Nuclear Receptor Binding Assay for bovine Estrogen Receptor (ER) (AID 2283345);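 note: actives lower the bound radioligand count which means they displace the ER ligand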
Procedure: NVS_NR_bER is a biochemical, single-readout assay that uses extracted gene-proteins from Bovine uterine membranes in a tissue-based cell-free assay. Measurements were taken 18 hours after chemical dosing in a 96-well plate.NVS_NR_bER is one of one assay component(s) measured or calculated from the NVS_NR_bER assay. […] This assay endpoint, NVS_NR_bER, was analyzed in the positive analysis fitting direction relative to DMSO as the negative control and baseline of activity. […]
Records with an inconclusive call do not appear. Activity calls are given as the source filed them. Rule for the calls: active = hit-call score of the fitted dose curve at least 0.9, where 1 is the maximum; inconclusive = response in the unintended direction; inactive = score below 0.9.
property label: outcome

Sample records with outcome:
INSERT INTO assay_data (compound, value_reported) VALUES
  ('CO/N=C(/C(=O)OC)c1ccccc1COc1ccccc1C', 'inactive'),
  ('CC1(C)CN=C(NN=C(/C=C/c2ccc(C(F)(F)F)cc2)/C=C/c2ccc(C(F)(F)F)cc2)NC1', 'inactive'),
  ('O=P1(N(CCCl)CCCl)NCCCO1 (stereo unspecified)', 'inactive'),
  ('c1ccc(OP(Oc2ccccc2)Oc2ccccc2)cc1', 'inactive'),
  ('c1ccc2c(c1)Nc1ccccc1S2', 'inactive');

Shift focus to the following entry.
CCCCOCC1CO1 (stereo unspecified) has a reported outcome of inactive

----------
read-out: serum amyloid A (SAA), SAA1 (gene 6288); assay: BSK_CASM3C_SAA: BioMAP Diversity Plus: CASM3C Assay for serum amyloid A (SAA) Biomarker Activity (AID 2283049); conditions: primary human coronary artery smooth muscle cells; actives raise or lower the signal;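 note: SAA protein level quantified by ELISA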
The source made the active and inactive calls. Rule for the calls: active = hit-call score of the fitted dose curve at least 0.9, where 1 is the maximum; inactive = score below 0.9.
property label: outcome

Sample records with outcome:
INSERT INTO results (molecule, property_label, value_reported) VALUES
  ('CCCCC(CC)COP(=O)(Oc1ccccc1)Oc1ccccc1 (stereo not drawn)', 'outcome', 'inactive'),
  ('OCC1CO1 (stereo not drawn)', 'outcome', 'inactive'),
  ('CCOP(=S)(OCC)SCSCC', 'outcome', 'inactive'),
  ('NC(=O)C(F)(F)C(F)(F)F', 'outcome', 'inactive');

Below are some molecules; for each one, tell me its outcome.
1. O=C(O)C1C(C(=O)O)C2(Cl)C(Cl)=C(Cl)C1(Cl)C2(Cl)Cl (stereo not drawn)
2. O=P(OCC(Br)CBr)(OCC(Br)CBr)OCC(Br)CBr (stereo not drawn)
3. COCCOCCO
4. COC(=O)C(F)(F)C(F)(F)OC(F)(C(F)(F)F)C(F)(F)OC(F)=C(F)F (stereo not drawn)

1: inactive; 2: inactive; 3: inactive; 4: inactive
